Data provenance: ChEMBL document CHEMBL1649080

Experiment: in vitro
Conditions: human, Caco-2
Endpoint label: Papp A→B (nm/s)
Numbers only, in nm/s.

**Q:** Give recorded Papp A→B. CC(C)(O)C(=O)N1CCN(c2ccc(C(F)(F)F)c(C3=C(c4c[nH]c5ccccc45)C(=O)NC3=O)c2)CC1
**A:** 30

----------
Target: Protein kinase C theta type (Homo sapiens, UniProt Q04759)
Sequence (Q04759 whole entry): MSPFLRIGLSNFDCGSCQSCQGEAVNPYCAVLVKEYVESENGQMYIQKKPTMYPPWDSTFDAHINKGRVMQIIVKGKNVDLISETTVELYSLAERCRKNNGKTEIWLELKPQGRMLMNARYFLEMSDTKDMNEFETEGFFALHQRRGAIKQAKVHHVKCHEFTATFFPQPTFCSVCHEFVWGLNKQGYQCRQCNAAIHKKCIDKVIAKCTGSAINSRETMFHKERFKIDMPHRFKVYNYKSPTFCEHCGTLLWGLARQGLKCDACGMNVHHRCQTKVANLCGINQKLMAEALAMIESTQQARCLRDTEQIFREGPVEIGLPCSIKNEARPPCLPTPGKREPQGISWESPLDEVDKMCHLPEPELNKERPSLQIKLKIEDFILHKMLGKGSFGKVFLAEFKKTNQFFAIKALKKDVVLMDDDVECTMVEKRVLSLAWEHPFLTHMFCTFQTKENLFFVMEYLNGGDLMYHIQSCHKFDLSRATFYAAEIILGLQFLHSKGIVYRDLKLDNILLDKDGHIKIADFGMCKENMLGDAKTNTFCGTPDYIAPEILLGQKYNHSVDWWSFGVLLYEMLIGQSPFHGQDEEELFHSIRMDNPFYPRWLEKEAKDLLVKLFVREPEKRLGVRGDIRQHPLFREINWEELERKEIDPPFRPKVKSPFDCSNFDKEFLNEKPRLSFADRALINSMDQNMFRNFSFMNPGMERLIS
Endpoint label: IC50 (nM)
Numbers only, in nM.

**Q:** Give recorded IC50. CC(C)(O)C(=O)N1CCN(c2ccc(C(F)(F)F)c(C3=C(c4c[nH]c5ccccc45)C(=O)NC3=O)c2)CC1
**A:** 68

----------
Exercise: for every item that follows, state its recorded IC50.
Target: Tyrosine-protein kinase JAK3 (Homo sapiens)
Sequence (P52333 whole entry): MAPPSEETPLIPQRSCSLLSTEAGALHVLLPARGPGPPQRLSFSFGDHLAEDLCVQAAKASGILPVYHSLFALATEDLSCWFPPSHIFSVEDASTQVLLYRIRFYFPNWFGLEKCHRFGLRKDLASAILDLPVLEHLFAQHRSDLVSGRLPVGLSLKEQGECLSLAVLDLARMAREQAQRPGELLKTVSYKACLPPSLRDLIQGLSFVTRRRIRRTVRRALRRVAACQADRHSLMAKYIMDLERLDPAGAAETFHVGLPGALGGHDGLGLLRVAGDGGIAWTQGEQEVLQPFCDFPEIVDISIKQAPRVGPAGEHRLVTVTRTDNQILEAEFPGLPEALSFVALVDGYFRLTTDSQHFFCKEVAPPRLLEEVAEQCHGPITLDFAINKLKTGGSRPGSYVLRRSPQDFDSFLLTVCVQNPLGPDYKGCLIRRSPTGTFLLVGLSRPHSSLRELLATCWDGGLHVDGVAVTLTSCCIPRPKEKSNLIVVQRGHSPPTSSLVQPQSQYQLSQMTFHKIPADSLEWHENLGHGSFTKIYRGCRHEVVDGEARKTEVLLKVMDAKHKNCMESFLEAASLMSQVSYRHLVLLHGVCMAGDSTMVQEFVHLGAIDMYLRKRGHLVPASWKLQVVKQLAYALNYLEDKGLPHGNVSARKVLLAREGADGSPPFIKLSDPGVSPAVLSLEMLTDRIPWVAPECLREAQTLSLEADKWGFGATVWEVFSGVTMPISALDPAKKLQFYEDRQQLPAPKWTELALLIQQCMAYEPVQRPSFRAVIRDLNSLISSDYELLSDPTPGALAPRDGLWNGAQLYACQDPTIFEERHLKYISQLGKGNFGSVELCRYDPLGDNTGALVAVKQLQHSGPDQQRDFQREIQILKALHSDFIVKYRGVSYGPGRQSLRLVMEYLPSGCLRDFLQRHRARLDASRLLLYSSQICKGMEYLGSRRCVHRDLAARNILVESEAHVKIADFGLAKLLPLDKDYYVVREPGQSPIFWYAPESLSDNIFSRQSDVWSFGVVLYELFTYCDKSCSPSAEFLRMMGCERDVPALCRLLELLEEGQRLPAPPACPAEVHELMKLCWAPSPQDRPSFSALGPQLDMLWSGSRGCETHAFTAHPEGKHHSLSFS

Some entries whose results are on file:
O=C1NC(=O)C(c2c[nH]c3ccccc23)=C1c1cc(F)ccc1C(F)(F)F	> 10000 nM
O=CN1CCN(c2ccc(C(F)(F)F)c(C3=C(c4c[nH]c5ccccc45)C(=O)NC3=O)c2)CC1	36 nM
O=C1NC(=O)C(c2c[nH]c3ccccc23)=C1c1cc(N2CCNCC2)ccc1C(F)(F)F	133 nM
O=C1NC(=O)C(c2c[nH]c3ccccc23)=C1c1cc(N2CCOCC2)ccc1C(F)(F)F	460 nM

In the following, a different molecule is considered.
**Q:** Give recorded IC50. CN(C)c1ccc(C(F)(F)F)c(C2=C(c3c[nH]c4ccccc34)C(=O)NC2=O)c1
**A:** 423 nM
